Biological target: T1, orthogonal hCD122 receptor (hoRb), hCD122 with H133D and Y134F (human, UniProt P14784 27-550)
T1 sequence: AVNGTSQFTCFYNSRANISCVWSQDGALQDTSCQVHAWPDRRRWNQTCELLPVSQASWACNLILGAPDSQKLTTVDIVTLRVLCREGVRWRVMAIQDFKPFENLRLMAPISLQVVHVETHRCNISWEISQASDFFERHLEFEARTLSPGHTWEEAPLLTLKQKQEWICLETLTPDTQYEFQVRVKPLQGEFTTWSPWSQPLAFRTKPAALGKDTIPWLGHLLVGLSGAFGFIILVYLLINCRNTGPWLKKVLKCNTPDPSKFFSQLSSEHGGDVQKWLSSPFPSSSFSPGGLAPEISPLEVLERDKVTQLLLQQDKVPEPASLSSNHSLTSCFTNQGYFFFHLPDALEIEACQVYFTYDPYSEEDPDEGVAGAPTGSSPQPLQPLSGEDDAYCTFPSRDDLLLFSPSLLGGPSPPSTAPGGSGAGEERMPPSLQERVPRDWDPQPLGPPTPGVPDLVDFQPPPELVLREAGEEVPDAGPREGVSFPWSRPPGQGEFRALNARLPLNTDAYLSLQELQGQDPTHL
Assay: cell-based or functional assay
Property Label: NKL Ortho Proliferation Signal 1:50

A: L18Y, SQVLKA (ligand) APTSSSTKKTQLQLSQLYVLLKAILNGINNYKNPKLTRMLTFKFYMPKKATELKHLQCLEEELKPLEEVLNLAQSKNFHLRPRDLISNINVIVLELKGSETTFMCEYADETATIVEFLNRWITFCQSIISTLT
B: SQVLYA, E116G (ligand) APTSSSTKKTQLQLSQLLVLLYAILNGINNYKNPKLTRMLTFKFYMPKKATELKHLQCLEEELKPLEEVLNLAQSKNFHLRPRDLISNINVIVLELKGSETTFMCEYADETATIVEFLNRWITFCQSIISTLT
C: Q74N, SQVLKA (ligand) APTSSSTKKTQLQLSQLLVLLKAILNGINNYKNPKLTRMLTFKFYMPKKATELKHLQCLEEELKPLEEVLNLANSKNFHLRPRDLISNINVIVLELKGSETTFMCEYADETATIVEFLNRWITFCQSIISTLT
Q) Form: Sort by [NKL Ortho Proliferation Signal 1:50] Order [ ascending ] Reply: labels, ordered per the request.
A) B, A, C
(B: 8390, A: 14800, C: 22600)

P: T3K, SQVLKA (ligand) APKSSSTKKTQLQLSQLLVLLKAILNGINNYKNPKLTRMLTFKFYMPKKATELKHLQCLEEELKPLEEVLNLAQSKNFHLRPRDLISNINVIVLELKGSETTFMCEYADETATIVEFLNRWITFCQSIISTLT
Q: V91K, SQVLKA (ligand) APTSSSTKKTQLQLSQLLVLLKAILNGINNYKNPKLTRMLTFKFYMPKKATELKHLQCLEEELKPLEEVLNLAQSKNFHLRPRDLISNINKIVLELKGSETTFMCEYADETATIVEFLNRWITFCQSIISTLT
Q) Of P and Q , which shows the smaller NKL Ortho Proliferation Signal 1:50 value? To answer, give the label that identifies your chosen option.
A) Q
(Q: 4940, P: 18400)
